tested on: H596 lung adenosquamous carcinoma cells; assay: Relative colony forming efficiency after antisense treatment (Table 13); type: cell-based, human; details: 0.2 μM antisense oligodeoxyribonucleotide phosphorothioate, averages of 2-8 determinations
Strand notation (5' to 3'): a small letter for the sugar, then the base; units joined by * are phosphorothioate-linked, units joined directly phosphodiester-linked; [ ] holds rarer units or linkages, { } end groups; capitals alone tell only the bases. d = 2'-deoxy (DNA)
We begin with a simple list: items and their reported Reduced relative colony forming efficiency, expressed as % inhibition, H596.
PROPERTY_MEASURED: Reduced relative colony forming efficiency, expressed as % inhibition, H596 (%)

SUBSTANCE	READOUT_UNIT	QUANTITATIVE_RESULT
AGGACTGGTTGTGAGGTAGC (DNA, all phosphorothioate, methylation of C not given here) [AS-II-1499-20]	%	78.3
GGGAGAGCATAGTGGAGGCG (dG*dG*dG*dA*dG*dA*dG*dC*dA*dT*dA*dG*dT*dG*dG*dA*dG*dG*dC*dG; antisense) [AS-II-185-20]	%	24.53
CGGAGGGAGAGCATAGTGGA (dC*dG*dG*dA*dG*dG*dG*dA*dG*dA*dG*dC*dA*dT*dA*dG*dT*dG*dG*dA; antisense) [AS-II-189-20]	%	26.15
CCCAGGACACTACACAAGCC (antisense; DNA, all phosphorothioate, methylation of C not given here) [AS-II-2026-20]	%	84.16
GCTATTATCGCCGCCGTGAG (DNA, all phosphorothioate, methylation of C not given here) [AS-II-1773-20]	%	66.04
GsCGsAAGsCAGsAGCsGAGsCAGCsC (antisense dG*dCdG*dAdAdG*dCdAdG*dAdGdC*dGdAdG*dCdAdGdC*dC) [AS-II-163-20]	%	32.08
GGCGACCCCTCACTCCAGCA (antisense dG*dG*dC*dG*dA*dC*dC*dC*dC*dT*dC*dA*dC*dT*dC*dC*dA*dG*dC*dA) [AS-II-114-20]	%	46.3
ATCGCCGCCGTG (DNA, all phosphorothioate, methylation of C not given here) [AS-II-1775-12]	%	18.6
CCTGTCTTCTATCTGGCACC (antisense; DNA, all phosphorothioate, methylation of C not given here) [AS-II-1989-20]	%	56.33
CGGCGGCGTGTT (dC*dG*dG*dC*dG*dG*dC*dG*dT*dG*dT*dT) [AS-II-288-12]	%	12.67
GCAGCGAAGCAGAGCGAGCA (antisense dG*dC*dA*dG*dC*dG*dA*dA*dG*dC*dA*dG*dA*dG*dC*dG*dA*dG*dC*dA) [AS-II-166-20]	%	61.99
AAAAATCAGCCAAGTAAGGG (DNA, all phosphorothioate, methylation of C not given here) [AS-II-1381-20]	%	45.28
CsCCCsTCACsTCCsAGCsAGCsCTsT (antisense dC*dCdCdC*dTdCdAdC*dTdCdC*dAdGdC*dAdGdC*dCdT*dT) [AS-II-109-20]	%	7.28

---

system: MIA PaCa-2 pancreatic cell carcinoma; assay: Relative colony forming efficiency after antisense treatment (Table 13); format: cell-based, human; conditions: 0.2 μM antisense oligodeoxyribonucleotide phosphorothioate; MIA PaCa-2 cells; averages of 2-8 determinations
Strand notation (5' to 3'): a small letter for the sugar, then the base; units joined by * are phosphorothioate-linked, units joined directly phosphodiester-linked; [ ] holds rarer units or linkages, { } end groups; capitals alone tell only the bases. d = 2'-deoxy (DNA)
We begin with a simple list: items and their reported Reduced relative colony forming efficiency, expressed as % inhibition, MIA PaCa-2.
PROPERTY_MEASURED: Reduced relative colony forming efficiency, expressed as % inhibition, MIA PaCa-2

ORDERED_RESIDUES	TARGET_UNDER_TEST	RESULT
CCTCCTCGGCGGTCCAAAAG (dC*dC*dT*dC*dC*dT*dC*dG*dG*dC*dG*dG*dT*dC*dC*dA*dA*dA*dA*dG; antisense) [AS-II-494-20]	MIA PaCa-2 pancreatic cell carcinoma	25.31%
GGTTTTCTCTCAGCAGCGGC (dG*dG*dT*dT*dT*dT*dC*dT*dC*dT*dC*dA*dG*dC*dA*dG*dC*dG*dG*dC; antisense) [AS-II-404-20]	MIA PaCa-2 pancreatic cell carcinoma	17.84%
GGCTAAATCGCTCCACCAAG (dG*dG*dC*dT*dA*dA*dA*dT*dC*dG*dC*dT*dC*dC*dA*dC*dC*dA*dA*dG) [AS-II-626-20]	MIA PaCa-2 pancreatic cell carcinoma	75.62%
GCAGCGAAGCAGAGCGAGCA (antisense dG*dC*dA*dG*dC*dG*dA*dA*dG*dC*dA*dG*dA*dG*dC*dG*dA*dG*dC*dA) [AS-II-166-20]	MIA PaCa-2 pancreatic cell carcinoma	91.36%
GAACATCAGGCAAGCAAAAT (DNA, all phosphorothioate, methylation of C not given here) [AS-II-1006-20]	MIA PaCa-2 pancreatic cell carcinoma	47.93%
TGGCTGTGCTGGTTAAAGGA (DNA, all phosphorothioate, methylation of C not given here) [AS-II-1659-20]	MIA PaCa-2 pancreatic cell carcinoma	42.54%
ACCCCTCACTCCAGCAGCCT (antisense dA*dC*dC*dC*dC*dT*dC*dA*dC*dT*dC*dC*dA*dG*dC*dA*dG*dC*dC*dT) [AS-II-110-20]	MIA PaCa-2 pancreatic cell carcinoma	47.51%
TCTGCCTTCTTCTTGACACA (antisense; DNA, all phosphorothioate, methylation of C not given here) [AS-II-798-20]	MIA PaCa-2 pancreatic cell carcinoma	34.65%
CGTTGAGGAAAATACAGTGA (antisense; DNA, all phosphorothioate, methylation of C not given here) [AS-II-2182-20]	MIA PaCa-2 pancreatic cell carcinoma	56.43%
GGAAGATGACAAAGCGGCGG (dG*dG*dA*dA*dG*dA*dT*dG*dA*dC*dA*dA*dA*dG*dC*dG*dG*dC*dG*dG; antisense) [AS-II-425-20]	MIA PaCa-2 pancreatic cell carcinoma	65.2%
GGGCACATCTTCAGTTCATT (DNA, all phosphorothioate, methylation of C not given here) [AS-II-1364-20]	MIA PaCa-2 pancreatic cell carcinoma	59.34%
CTGCTTTAGTTTTCGGCTCC (dC*dT*dG*dC*dT*dT*dT*dA*dG*dT*dT*dT*dT*dC*dG*dG*dC*dT*dC*dC; antisense) [AS-II-362-20]	MIA PaCa-2 pancreatic cell carcinoma	34.2%

---

test system: MDA-MB-231 breast cell adenocarcinoma; test: Relative colony forming efficiency after antisense treatment (Table 13, FIG. 11, FIG. 12); format: cell-based, human; conditions: 0.2 μM antisense oligodeoxyribonucleotide phosphorothioate; MDA-MB-231 cells; averages of 2-8 determinations
Strand notation (5' to 3'): a small letter for the sugar, then the base; units joined by * are phosphorothioate-linked, units joined directly phosphodiester-linked; [ ] holds rarer units or linkages, { } end groups; capitals alone tell only the bases. d = 2'-deoxy (DNA)
PROPERTY_MEASURED: Reduced relative colony forming efficiency, expressed as % inhibition, MDA-MB-231

ORDERED_RESIDUES	RESULT
GCACGGGCGACC (antisense dG*dC*dA*dC*dG*dG*dG*dC*dG*dA*dC*dC) [AS-II-127-12]	38.46%
CGGCGGCGTGTT (dC*dG*dG*dC*dG*dG*dC*dG*dT*dG*dT*dT) [AS-II-288-12]	52.1%
AACTTCTTGGCTAAATCGCT (dA*dA*dC*dT*dT*dC*dT*dT*dG*dG*dC*dT*dA*dA*dA*dT*dC*dG*dC*dT; antisense) [AS-II-634-20]	92.44%
GCGAGCGGGACACGGAGGGA (dG*dC*dG*dA*dG*dC*dG*dG*dG*dA*dC*dA*dC*dG*dG*dA*dG*dG*dG*dA; antisense) [AS-II-201-20]	25.17%
CGTTGAGGAAAATACAGTGA (antisense; DNA, all phosphorothioate, methylation of C not given here) [AS-II-2182-20]	84.95%
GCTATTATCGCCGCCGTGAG (DNA, all phosphorothioate, methylation of C not given here) [AS-II-1773-20]	44.76%

---

system: T24 bladder cell carcinoma; assay: Relative colony forming efficiency after antisense treatment (Table 13); assay type: cell-based, human; conditions: 0.2 μM antisense oligodeoxyribonucleotide phosphorothioate; T24 cells; averages of 2-8 determinations
Strand notation (5' to 3'): a small letter for the sugar, then the base; units joined by * are phosphorothioate-linked, units joined directly phosphodiester-linked; [ ] holds rarer units or linkages, { } end groups; capitals alone tell only the bases. d = 2'-deoxy (DNA)
PROPERTY_MEASURED: Reduced relative colony forming efficiency, expressed as % inhibition, T24 (%)

SUBSTANCE	QUANTITATIVE_RESULT
TGCCTCCGACCCTTCCCATT (antisense dT*dG*dC*dC*dT*dC*dC*dG*dA*dC*dC*dC*dT*dT*dC*dC*dC*dA*dT*dT) [AS-II-14-20]	77.59
TGCCTCCGACCCTTCCCA (antisense dT*dG*dC*dC*dT*dC*dC*dG*dA*dC*dC*dC*dT*dT*dC*dC*dC*dA) [AS-II-16-18]	25.74
TATCTCTCCTCGGGTTTCAG (dT*dA*dT*dC*dT*dC*dT*dC*dC*dT*dC*dG*dG*dG*dT*dT*dT*dC*dA*dG; antisense) [AS-II-549-20]	45.46
CGGGTCCGTGATGGGCGCGA (dC*dG*dG*dG*dT*dC*dC*dG*dT*dG*dA*dT*dG*dG*dG*dC*dG*dC*dG*dA; antisense) [AS-II-217-20]	65.02
GAACATCAGGCAAGCAAAAT (DNA, all phosphorothioate, methylation of C not given here) [AS-II-1006-20]	61.49
TCCTTTATCCCACAACACTC (antisense; DNA, all phosphorothioate, methylation of C not given here) [AS-II-2067-20]	49.6
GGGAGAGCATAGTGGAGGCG (dG*dG*dG*dA*dG*dA*dG*dC*dA*dT*dA*dG*dT*dG*dG*dA*dG*dG*dC*dG; antisense) [AS-II-185-20]	21.94
CCCAGTTCCAGCATAAGTCT (DNA, all phosphorothioate, methylation of C not given here) [AS-II-1182-20]	94.51
GTAAGTCACAGCCAGCCAGG (DNA, all phosphorothioate, methylation of C not given here) [AS-II-1560-20]	32.49
GCCACAGGATAAAAACACAA (antisense; DNA, all phosphorothioate, methylation of C not given here) [AS-II-2009-20]	61.84
CGGCGGCGTGTT (dC*dG*dG*dC*dG*dG*dC*dG*dT*dG*dT*dT) [AS-II-288-12]	30.38
GsCGsAAGsCAGsAGCsGAGsCAGCsC (antisense dG*dCdG*dAdAdG*dCdAdG*dAdGdC*dGdAdG*dCdAdGdC*dC) [AS-II-163-20]	5.49
TTAGTCTTTCCTTCCAGTGA (DNA, all phosphorothioate, methylation of C not given here) [AS-II-1254-20]	41.53
TTAGAAGTCAGCATCCAAGG (DNA, all phosphorothioate, methylation of C not given here) [AS-II-1345-20]	51.26
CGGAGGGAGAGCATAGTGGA (dC*dG*dG*dA*dG*dG*dG*dA*dG*dA*dG*dC*dA*dT*dA*dG*dT*dG*dG*dA; antisense) [AS-II-189-20]	18.57
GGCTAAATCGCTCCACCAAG (dG*dG*dC*dT*dA*dA*dA*dT*dC*dG*dC*dT*dC*dC*dA*dC*dC*dA*dA*dG) [AS-II-626-20]	76.79
TCAGGCAAGCAAAATCACAG (DNA, all phosphorothioate, methylation of C not given here) [AS-II-1001-20]	86.11
AAGCGGCGGGGGTTTTCTCT (dA*dA*dG*dC*dG*dG*dC*dG*dG*dG*dG*dG*dT*dT*dT*dT*dC*dT*dC*dT; antisense) [AS-II-414-20]	11.67
GsCCsTCCGsACCsCTTCsCCsATTsG (antisense dG*dCdC*dTdCdCdG*dAdCdC*dCdTdTdC*dCdC*dAdTdT*dG) [AS-II-13-20]	18.99
GGCATCAGTCCTCGTTTCTT (antisense; DNA, all phosphorothioate, methylation of C not given here) [AS-II-933-20]	64.84
TGTAAACCCTCATCTCTGCT (antisense; DNA, all phosphorothioate, methylation of C not given here) [AS-II-981-20]	86.3
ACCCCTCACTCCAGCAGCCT (antisense dA*dC*dC*dC*dC*dT*dC*dA*dC*dT*dC*dC*dA*dG*dC*dA*dG*dC*dC*dT) [AS-II-110-20]	87.78
GAAGCCATAGAAACAGCGGG (antisense; DNA, all phosphorothioate, methylation of C not given here) [AS-II-667-20]	70.48
ATTAAAATCTGCGTTGAAGC (DNA, all phosphorothioate, methylation of C not given here) [AS-II-1700-20]	70.94
